# tested on: Progesterone receptor (Homo sapiens, UniProt P06401)
# Sequence (P06401 whole entry): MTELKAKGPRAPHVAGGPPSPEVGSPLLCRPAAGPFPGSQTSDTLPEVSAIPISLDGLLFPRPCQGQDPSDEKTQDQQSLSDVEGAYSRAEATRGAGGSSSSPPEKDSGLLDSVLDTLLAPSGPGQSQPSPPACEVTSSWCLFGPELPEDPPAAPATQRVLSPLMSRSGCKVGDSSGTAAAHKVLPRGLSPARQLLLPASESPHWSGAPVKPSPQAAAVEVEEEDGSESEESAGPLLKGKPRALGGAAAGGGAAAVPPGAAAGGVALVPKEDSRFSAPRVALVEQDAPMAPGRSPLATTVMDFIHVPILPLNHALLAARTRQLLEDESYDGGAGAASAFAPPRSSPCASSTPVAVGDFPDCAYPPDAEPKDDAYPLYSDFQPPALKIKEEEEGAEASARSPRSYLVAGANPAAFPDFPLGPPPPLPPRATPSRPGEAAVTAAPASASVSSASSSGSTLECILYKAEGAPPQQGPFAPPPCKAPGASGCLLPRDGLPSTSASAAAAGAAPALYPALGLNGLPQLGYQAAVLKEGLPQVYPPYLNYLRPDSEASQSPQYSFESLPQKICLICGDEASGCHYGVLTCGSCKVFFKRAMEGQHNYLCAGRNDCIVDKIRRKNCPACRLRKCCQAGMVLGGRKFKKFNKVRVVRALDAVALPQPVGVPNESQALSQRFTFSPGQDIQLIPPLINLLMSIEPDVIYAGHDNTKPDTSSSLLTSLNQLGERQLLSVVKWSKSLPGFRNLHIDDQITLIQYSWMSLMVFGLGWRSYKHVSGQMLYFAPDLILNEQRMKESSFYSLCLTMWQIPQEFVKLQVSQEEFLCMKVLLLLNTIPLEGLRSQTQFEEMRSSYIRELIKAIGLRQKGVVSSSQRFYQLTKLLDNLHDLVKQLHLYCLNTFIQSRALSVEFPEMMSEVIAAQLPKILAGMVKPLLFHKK
# assay text: In vitro antagonist potency in transactivation assay in neuroblastoma cells expressing human PR-A progesterone receptor
# Type: functional, cell-based
endpoint label: pIC50
Answers are plain numbers, as −log10 of the molar value.

# pIC50 (molecule: `CC(=O)c1ccc([C@H]2C[C@@]3(C)[C@@H](CC[C@@]3(O)C(F)(F)C(F)(F)F)[C@@H]3CCC4=CC(=O)CCC4=C32)cc1` ) is 11.44
